study system: TYK2 (Homo sapiens (Human))
Sequence (P29597 897-1176): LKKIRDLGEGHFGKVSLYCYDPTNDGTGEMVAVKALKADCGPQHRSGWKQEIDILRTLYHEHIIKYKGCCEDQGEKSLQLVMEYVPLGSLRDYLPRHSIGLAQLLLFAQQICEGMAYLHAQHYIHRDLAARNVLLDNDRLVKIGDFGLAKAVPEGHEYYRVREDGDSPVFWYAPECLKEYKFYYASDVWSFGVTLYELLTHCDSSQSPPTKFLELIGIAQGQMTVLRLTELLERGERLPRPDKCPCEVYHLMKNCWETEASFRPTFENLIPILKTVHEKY
assay overview: JAK Caliper Enzyme Assay at 1 mM ATP, TYK2
Assay type: biochemical

smiles repr	IC50, nM
CN1CCC(n2cc(-c3cc4ncccc4c(-c4ccn(C5(CC#N)CN(CC(F)(F)F)C5)n4)n3)cn2)CC1	88
Cn1cc(-c2cc3ncccc3c(-c3ccn(C4(CC#N)CN(CC5CC5)C4)n3)n2)cn1	73
CS(=O)(=O)N1CC(CC#N)(n2cc(-c3cc(-c4ccc(=O)[nH]c4)cc4ncccc34)nn2)C1	155

----------
study system: JAK1 (Homo sapiens (Human), UniProt P23458)
Sequence (P23458 875-1153): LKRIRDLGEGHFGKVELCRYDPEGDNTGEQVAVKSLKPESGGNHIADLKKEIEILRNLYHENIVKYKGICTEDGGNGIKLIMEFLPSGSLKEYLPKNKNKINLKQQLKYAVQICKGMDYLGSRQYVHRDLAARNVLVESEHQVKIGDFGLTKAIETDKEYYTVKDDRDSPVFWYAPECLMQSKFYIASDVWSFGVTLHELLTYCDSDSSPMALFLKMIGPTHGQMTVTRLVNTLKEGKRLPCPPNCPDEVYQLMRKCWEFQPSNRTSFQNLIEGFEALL
assay overview: JAK Caliper Enzyme Assay at 1 mM ATP, JAK1
Assay type: biochemical
measurement setup: JAK Caliper enzyme assay
pIC50: −log10 of the molar value.

compound	readout relation	pIC50
Cc1cncc(-c2cc(-c3cnn([C@]4(CC#N)C[C@H](C#N)C4)n3)c3cccnc3c2)n1 [Example 402]	<	5.00
CS(=O)(=O)N1CC(CC#N)(n2ncc(-c3cc(-c4c[nH]c5nccc-5c4)cc4ncccc34)n2)C1 [Example 415]	<	5.00
CS(=O)(=O)N1CC(CC#N)(n2cnc(-c3cc(-c4ccc(=O)[nH]c4)cc4ncccc34)n2)C1 [Example 451]	<	5.00
CO[C@H]1C[C@@](CC#N)(n2cc(-c3cc(-c4c[nH]nc4CO)cc4nccn34)cn2)C1 [Example 463]	<	5.00
Cc1nc(-c2cc(-c3cnn([C@]4(CC#N)C[C@@H](C#N)C4)n3)c3cccnc3c2)ccc1CCO [Example 379]	=	5.36
Cn1cc(-c2cc3nccnc3c(-c3ccn(C4(CC#N)CN(CC#N)C4)n3)n2)cn1 [Example 481]	<	5.00
N#CC[C@]1(n2ncc(-c3cc(-c4cncc(N)n4)cc4ncccc34)n2)C[C@H](C#N)C1 [Example 397]	<	5.00
Cn1cc(-c2cc(-c3cnn(C4(CC#N)CN(CC(F)(F)F)C4)c3)n3ncnc3c2)cn1 [Example 475]	=	5.18
CN1C(=O)COc2ccc(-c3cc(-c4cnn([C@]5(CC#N)C[C@H](C#N)C5)n4)c4cccnc4c3)nc21 [Example 425]	=	6.22
N#CC[C@]1(n2ncc(-c3cc(-c4cn5ccnc5c(N)n4)cc4ncccc34)n2)C[C@@H](C#N)C1 [Example 423]	=	5.65
N#CC[C@]1(n2ncc(-c3cc(-c4cnc(N)nc4)cc4ncccc34)n2)C[C@@H](C#N)C1 [Example 394]	=	5.07

----------
study system: JAK1 (Homo sapiens (Human))
assay overview: JAK Caliper Enzyme Assay at 1 mM ATP, JAK1
Type: biochemical
measured metric: IC50 (nM)

molecule	unit string	readout relation	val
N#CCC1(n2ccc(-c3nc(-c4cncc(F)c4)cc4ncccc34)n2)CN(CC(F)(F)F)C1 [Example 178]	nM	>	10000
N#CCC1(n2ncc(-c3cc(-c4ccc(C(N)=O)cn4)cc4ncccc34)n2)CC(C#N)C1 (stereo not shown) [Example 351]	nM	>	10000
N#CC[C@]1(n2ncc(-c3cc(-c4ccc(N)cn4)cc4ncccc34)n2)C[C@H](C#N)C1 [Example 360]	nM	=	1720
N#CCC1(n2ccc(-c3nc(Cl)cc4ncccc34)n2)CN(CC(F)(F)F)C1 [Example 14]	nM	=	8960
N#CC[C@]1(n2ncc(-c3cc(-c4c[nH]nc4CO)cc4ncccc34)n2)C[C@@H](C#N)C1 [Example 318]	nM	=	540
CS(=O)(=O)c1ccc(-c2cc(-c3cnn([C@]4(CC#N)C[C@H](C#N)C4)n3)c3cccnc3c2)nc1 [Example 368]	nM	=	525
N#CCC1(n2ncc(-c3cc(-c4cc[nH]n4)cc4ncccc34)n2)CN(CC(F)(F)F)C1 [Example 296]	nM	=	534
CS(=O)(=O)N1CC(CC#N)(n2ccc(-c3nc(-c4c[nH]c5ncccc45)cc4ncccc34)n2)C1 [Example 159]	nM	=	120
N#CCC1(n2ccc(-c3nc(-c4ccncc4)cc4ncccc34)n2)CN(CC(F)(F)F)C1 [Example 172]	nM	=	608
N#CCC1(n2ccc(-c3nc(-c4ccn[nH]4)cc4ncccc34)n2)CC(CO)C1 (stereo not shown) [Example 28]	nM	=	2570
N#CC[C@]1(n2ccc(-c3nc(-c4ccc(S(N)(=O)=O)nc4)cc4ncccc34)n2)C[C@H](C#N)C1 [Example 211]	nM	=	181
CN(C)CCn1cc(-c2cc3ncccc3c(-c3ccn([C@]4(CC#N)C[C@H](C#N)C4)n3)n2)cn1 [Example 114]	nM	=	404
N#CC[C@]1(n2ncc(-c3cc(-c4cccnc4N)cc4ncccc34)n2)C[C@@H](C#N)C1 [Example 362]	nM	>	10000
Cn1cc(-c2cc3ncccc3c(-c3ccn(C4(CC#N)CN(CC5CC5)C4)n3)n2)cn1 [Example 101]	nM	=	2040
CS(=O)(=O)N1CC(CC#N)(n2ccc(-c3nc(-c4cnn([C@@H]5CCOC5)c4)cc4ncccc34)n2)C1 [Example 124]	nM	=	715
CO[C@H]1C[C@](CC#N)(n2cc(-c3cc(-c4c[nH]nc4N)cc4ncccc34)cn2)C1 [Example 291]	nM	=	8820
N#CCC1(n2ncc(-c3cc(-c4nc(CO)cs4)cc4ncccc34)n2)CC(C#N)C1 (stereo not shown) [Example 340]	nM	=	432
N#CC[C@]1(n2ncc(-c3cc(-c4cccc(C(=O)O)n4)cc4ncccc34)n2)C[C@@H](C#N)C1 [Example 371]	nM	=	9280
N#CCC1(n2ccc(-c3nc(-c4ccn[nH]4)cc4ncccc34)n2)CC(CO)C1 (stereo not shown) [Example 29]	nM	=	3800

----------
study system: JAK2 (Homo sapiens (Human))
Sequence (O60674 849-1124): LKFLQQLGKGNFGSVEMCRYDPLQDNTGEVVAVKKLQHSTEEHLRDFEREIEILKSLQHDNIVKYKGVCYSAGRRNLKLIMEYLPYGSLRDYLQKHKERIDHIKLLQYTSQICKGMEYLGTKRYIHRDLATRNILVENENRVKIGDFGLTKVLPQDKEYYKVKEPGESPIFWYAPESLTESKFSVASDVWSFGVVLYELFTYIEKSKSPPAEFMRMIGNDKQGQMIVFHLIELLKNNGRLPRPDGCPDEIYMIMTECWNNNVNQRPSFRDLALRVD
assay overview: JAK Caliper Enzyme Assay at 1 mM ATP, JAK2
Format: biochemical
measurement setup: JAK Caliper enzyme assay
Below: a set of entries, each annotated with reported IC50.

compound	unit string	readout relation	IC50
CS(=O)(=O)N1CC(CC#N)(n2ncc(-c3cc(-c4c[nH]c(=O)[nH]c4=O)cc4ncccc34)n2)C1 [Example 414]	nM	=	6170
CCn1cc(-c2cc(-c3cnn(C4(CC#N)CN(S(C)(=O)=O)C4)n3)c3cccnc3c2)ccc1=O [Example 413]	nM	=	682
Cn1cc(-c2cc3nccnc3c(-c3cnn(C4(CC#N)CN(CC#N)C4)c3)n2)cn1 [Example 480]	nM	=	17
CS(=O)(=O)N1CC(CC#N)(n2ncc(-c3cc(-c4ccc(O)c(F)c4)cc4ncccc34)n2)C1 [Example 444]	nM	=	1180
COc1nc(-c2cc(-c3cnn([C@]4(CC#N)C[C@H](C#N)C4)n3)c3cccnc3c2)cnc1N [Example 407]	nM	=	1010
N#CC[C@]1(n2cc(-c3cc(-c4cc[nH]n4)cc4nccn34)cn2)C[C@@H](C#N)C1 [Example 454]	nM	=	468
COc1nc(-c2cc(-c3cnn([C@]4(CC#N)C[C@@H](C#N)C4)n3)c3cccnc3c2)ccc1N [Example 384]	nM	=	256
N#CCC1(n2ncc(-c3cc(-c4ccc(C(N)=O)cc4)cc4ncccc34)n2)CC(C#N)C1 (centres unmarked) [Example 434]	nM	=	748
N#CC[C@]1(n2ncc(-c3cc(-c4cnccn4)cc4ncccc34)n2)C[C@@H](C#N)C1 [Example 392]	nM	=	3050
CO[C@H]1C[C@@](CC#N)(n2cc(-c3cc(-c4cnn(C)c4)cc4nccn34)cn2)C1 [Example 460]	nM	=	5360
N#CC[C@]1(n2ncc(-c3cc(-c4ccc(OCCN)cc4)cc4ncccc34)n2)C[C@H](C#N)C1 [Example 440]	nM	=	805
Cc1nc(-c2cc(-c3cnn([C@]4(CC#N)C[C@@H](C#N)C4)n3)c3cccnc3c2)ccc1O [Example 382]	nM	=	1020
Cc1cncc(-c2cc(-c3cnn([C@]4(CC#N)C[C@H](C#N)C4)n3)c3cccnc3c2)n1 [Example 402]	nM	=	6290
Cn1cc(-c2cc(-c3cnn(C4(CC#N)CN(CC(F)(F)F)C4)c3)n3ncnc3c2)cn1 [Example 475]	nM	=	6850
CS(=O)(=O)Nc1cccc(-c2cc(-c3cnn(C4(CC#N)CC(C#N)C4)n3)c3cccnc3c2)n1 (centres unmarked) [Example 373]	nM	=	411
N#CC[C@]1(n2ncc(-c3cc(-c4cnc(N)cn4)cc4ncccc34)n2)C[C@H](C#N)C1 [Example 399]	nM	>	10000
CS(=O)(=O)Nc1ccc(-c2cc(-c3cnn(C4(CC#N)CC(C#N)C4)n3)c3cccnc3c2)nc1 (centres unmarked) [Example 375]	nM	=	148
N#CC[C@]1(n2ncc(-c3cc(-c4cnc5[nH]ccc5n4)cc4ncccc34)n2)C[C@@H](C#N)C1 [Example 416]	nM	=	2300
CS(=O)(=O)N1CC(CC#N)(n2ncc(-c3cc(-c4cccc(C(N)=O)c4)cc4ncccc34)n2)C1 [Example 430]	nM	=	909
COc1nc(-c2cc(-c3cnn([C@]4(CC#N)C[C@H](C#N)C4)n3)c3cccnc3c2)ccc1N [Example 383]	nM	=	35
N#CC[C@]1(n2cc(-c3cc(-c4cccc(C(N)=O)n4)cc4nccn34)cn2)C[C@H](C#N)C1 [Example 470]	nM	=	147
Cn1cc(-c2cc3nccnc3c(-c3ccn(C4(CC#N)CN(CC(F)(F)F)C4)n3)n2)cn1 [Example 482]	nM	>	10000
CS(=O)(=O)N1CC(CC#N)(n2ncc(-c3cc(-c4ccc(F)cc4O)cc4ncccc34)n2)C1 [Example 441]	nM	>	10000
N#CC[C@]1(n2ncc(-c3cc(-c4ccc(C(=O)O)cc4)cc4ncccc34)n2)C[C@H](C#N)C1 [Example 435]	nM	=	179
Cn1cc(-c2cc(-c3cnn(C4(CC#N)CC(C#N)C4)n3)n3ccnc3c2)cn1 (centres unmarked) [Example 474]	nM	>	10000
CS(=O)(=O)N1CC(CC#N)(n2ncc(-c3cc(-c4cc(F)ccc4O)cc4ncccc34)n2)C1 [Example 442]	nM	>	10000
